biological target: MJ4 pseudovirus envelope (HIV-1); assay: cell-based or functional assay
quantity measured: EC50, single-cycle HIV-1 pseudovirus infection of GHOST cells (luciferase)

| binder | observed value |
| --- | --- |
| XNLHFCQLRCKSLGLLGRCAXTFCACV (not fully specified; N-terminal thiopropionic acid (TPA) at position 1; (D)Pro at 21; C-terminal amide, optimized mini-protein, Phe at 23; unlabelled monomer; also called B4T) [CD4M48] | > 3300 nM |
| XNLHFCQLRCKSLGLLGRCAXTXCACV (not fully specified; N-terminal thiopropionic acid (TPA) at position 1; (D)Pro at 21; para-cyclo-hexylmethoxyphenylalanine (U1) at 23; C-terminal amide) [CD4M48_U1] | 87 nM |
| XNLHFCQLRCKSLGLLGRCAXTXCACV (not fully specified; N-terminal thiopropionic acid (TPA) at position 1; (D)Pro at 21; para-cyclo-pentylethoxyphenylalanine (U2) at 23; C-terminal amide) [CD4M48_U2] | 773 nM |
| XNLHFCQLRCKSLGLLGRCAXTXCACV (not fully specified; N-terminal thiopropionic acid (TPA) at position 1; (D)Pro at 21; Phe(para-[phenyl-ethoxy]) (U3) at 23; C-terminal amide) [CD4M48_U3] | > 3270 nM |
| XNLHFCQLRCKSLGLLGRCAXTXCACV (not fully specified; N-terminal thiopropionic acid (TPA) at position 1; (D)Pro at 21; biphenylalanine (Bip) at 23; C-terminal amide) [CD4M47] | > 3410 nM |
